Tested on: secretion of cytokine IL-8 in human monocyte cell line THP-1 triggered by lipopolysaccharide (LPS)
Test: Inhibition of LPS-triggered IL-8 secretion in THP-1 cells (ELISA)
Type: cell-based
Conditions: IL-8 in supernatant by ELISA, read-out: IC50(IL8)
reported_property: IC50 (nM)

INSERT INTO results (compound, number) VALUES
  ('COc1cccc(C(Nc2cccc3nc(C)ccc23)C(O)(CCl)C(F)(F)F)c1 (stereo not shown)', 25);
